target: gastrin receptor (gastric glands) (Cavia porcellus, UniProt H0VZC5); construct: The washed guinea pig gastric glands prepared as above were resuspended in 25 ml of standard buffer; from tissue; host or cells: isolated guinea pig gastric mucosal glands (collagenase-dispersed); assay: Gastrin Receptor Binding in Guinea Pig Gastric Glands; conditions: guinea pig gastric mucosal glands, 125I-gastrin, 25°C 30 minutes; read-out: IC50(µM) ^125I-Gastrin Gastric Glands
Sequence (H0VZC5 1-426): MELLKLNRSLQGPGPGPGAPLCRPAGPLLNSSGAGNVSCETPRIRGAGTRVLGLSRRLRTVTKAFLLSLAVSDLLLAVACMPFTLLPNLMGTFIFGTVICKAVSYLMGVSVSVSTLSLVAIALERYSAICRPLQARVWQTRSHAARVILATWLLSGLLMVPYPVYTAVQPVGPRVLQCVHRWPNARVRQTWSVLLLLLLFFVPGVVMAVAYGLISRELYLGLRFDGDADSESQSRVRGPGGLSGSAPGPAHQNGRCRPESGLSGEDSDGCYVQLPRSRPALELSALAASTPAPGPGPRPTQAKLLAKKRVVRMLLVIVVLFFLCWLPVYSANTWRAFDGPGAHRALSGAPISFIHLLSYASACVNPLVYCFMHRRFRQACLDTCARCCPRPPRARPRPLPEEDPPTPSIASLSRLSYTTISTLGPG
I'd be grateful if you could share measured IC50 for these entries.
Phrase the answer as number then unit, nothing more needed.

Endpoint output: IC50 of CN1C(=O)[C@@H](NC(=O)c2cc3ccccc3n2CCCC(=O)O)N=C(c2ccccc2)c2ccccc21 . Value?
0.24 µM

Repeat for the following compound: CN1C(=O)C(NC(=O)Nc2cc3c(cn2)[nH]c2ccccc23)N=C(c2ccccc2)c2ccccc21 (racemic)
6.4 µM

Repeat for the following compound: O=C(NC1N=C(c2ccccc2)c2ccccc2N(CCO)C1=O)c1cc2ccccc2[nH]1 (racemic)
0.24 µM

Repeat for the following compound: CN1C(=O)[C@@H](NC(=O)c2cc3ccccc3n2CC(=O)O)N=C(c2ccccc2)c2ccccc21
0.07 µM

Repeat for the following compound: CCOC(=O)c1cccc(NC(=O)N[C@@H]2N=C(c3ccccc3)c3ccccc3N(C)C2=O)c1
0.018 µM

====

biological target: CCK receptor (brain, cerebral cortex) (Cavia porcellus, UniProt H0VZC5); construct: Cerebral cortex was dissected and used as a receptor source; from tissue; host or cells: guinea pig cerebral cortex membrane homogenate; test: CCK Receptor Binding (Brain), inhibition of 125I-CCK-33 binding; design: species or system guinea pig; details: guinea pig cerebral cortex membranes, 125I-CCK-33, 25°C 2 hours; read-out: IC50(µM) ^125I-CCK Brain
Sequence (H0VZC5 1-426): as above
I'd be grateful if you could share measured IC50 for these entries.
Phrase the answer as number then unit, nothing more needed.

Endpoint output: IC50 of O=C(NC1N=C(c2ccccc2)c2ccccc2N(CCO)C1=O)c1cc2ccccc2[nH]1 (racemic) . Value?
0.16 µM

Repeat for the following compound: CN1C(=O)[C@@H](NC(=O)c2cc3ccccc3n2CCCC(=O)O)N=C(c2ccccc2)c2ccccc21
0.23 µM

Repeat for the following compound: CCOC(=O)c1cccc(NC(=O)N[C@@H]2N=C(c3ccccc3)c3ccccc3N(C)C2=O)c1
0.026 µM

Repeat for the following compound: CN1C(=O)C(NC(=O)c2cc3cc(OCC(=O)O)ccc3[nH]2)N=C(c2ccccc2)c2ccccc21 (centres unmarked)
0.16 µM

Repeat for the following compound: CN1C(=O)[C@@H](NC(=O)c2cc3ccccc3n2CC(=O)O)N=C(c2ccccc2)c2ccccc21
0.129 µM

====

molecular target: CCK receptor (brain, cerebral cortex) (Cavia porcellus); construct: Cerebral cortex was dissected and used as a receptor source; from tissue; host or cells: guinea pig cerebral cortex membrane homogenate; experiment: CCK Receptor Binding (Brain), inhibition of 125I-CCK-33 binding; design: species or system guinea pig
reported-property: pIC50
Note on pIC50: it is the negative log10 of concentration, concentration in mol/L.

Endpoint output: pIC50 of CN1C(=O)C(NC(=O)Nc2cc3c(cn2)[nH]c2ccccc23)N=C(c2ccccc2)c2ccccc21 (racemic) . Value?
7.15

Repeat for the following molecule: CN1C(=O)C(NC(=O)Nc2ccc(N)nc2)N=C(c2ccccc2)c2ccccc21 (racemic)
7.96

Repeat for the following molecule: Cc1cccc(NC(=O)NC2N=C(c3ccccc3)c3ccccc3N(CCO)C2=O)c1 (stereo not shown)
7.92

Repeat for the following molecule: COc1cccc(NC(=O)NC2N=C(c3ccccc3)c3ccccc3N(CCN(C)C)C2=O)c1 (stereo not shown)
7.62

Repeat for the following molecule: CN1C(=O)[C@H](NC(=O)Nc2cccc(C(=O)O)c2)N=C(c2ccccc2)c2ccccc21
8.41

Repeat for the following molecule: CN1C(=O)C(NC(=O)Nc2cccc(C(=O)O)c2)N=C(c2ccccc2)c2ccccc21 (racemic)
8.41

Repeat for the following molecule: Cc1cccc(NC(=O)N[C@@H]2N=C(c3ccccc3)c3ccccc3N(C)C2=O)c1
8.70
